assay: Aqueous solubility at pH about 6.8; type: physicochemical; conditions: 25 °C, pH 6.8, aqueous buffer, kinetic from dmso stock, pH of about 6.8; average of two determinations; read-out: aqueous solubility, average
QUANTITY_MEASURED: solubility at 16 h

The recorded solubility at 16 h for C[C@@H]1C[C@@H]2C[C@H](C1)C[C@@H](N1[C@@H]3CCC[C@H]1C[C@@H](n1c(=O)c(C(=O)O)nc4ccccc41)C3)C2 [Compound 405K] is ~6.5 µM

---

Test: Plasma concentration (pharmacokinetics) after single oral dose in humans
Format: in vivo, human
Conditions: male, human, plasma, po, 10 mg, 10 mg single oral dose; read-out: t1/2 Mean (converted)
Procedure: The plasma concentration of Compound (1D) was evaluated in humans for up to 36 hours after administration of a single oral dose of 3, 10, or 30 mg of Compound (1D) in the form of a methyl cellulose suspension. Four healthy male subjects were administered each dose. FIG. 19A provides a plot of the human plasma concentration of Compound (1D) on a linear scale versus linear time in hours at each dose: 3, 10, and 30 mg. […]
QUANTITY_MEASURED: half-life (h)
Numeric answer only, unit h assumed.

Measured half-life, O=C(O)c1nc2ccccc2n([C@H]2C[C@H]3CCC[C@@H](C2)N3C2CC3CCCC(C3)C2)c1=O (stereo partly shown) : 2.6

---

assay: in vivo; conditions: male, Crl:CD(SD), rat, po, no-observed-adverse-effect-level (NOAEL)
QUANTITY_MEASURED: NOAEL

Data point: O=C(O)c1nc2ccccc2n([C@H]2C[C@H]3CCC[C@@H](C2)N3C2CC3CCCC(C3)C2)c1=O (stereo partly shown) [Compound (1D)] ; NOAEL = 600 mg/kg

---

assay: Aqueous solubility at pH about 6.8; format: physicochemical; details: 25 °C, pH 6.8, aqueous buffer, kinetic from dmso stock, first procedure (JP2 solution, LC-MS); read-out: Solubility at pH 6.8
QUANTITY_MEASURED: solubility at 16 h

Record C[C@@H]1C[C@@H]2C[C@H](C1)C[C@@H](N1[C@@H]3CCC[C@H]1C[C@@H](n1c(=O)c(C(=O)O)nc4ccccc41)C3)C2 [Compound 405K] , field solubility at 16 h: 8 µM

Entry under test: O=C(O)c1nc2ccccc2n([C@H]2C[C@H]3CCC[C@@H](C2)N3C2CC3CCCC(C3)C2)c1=O (some centres unmarked) . Its solubility at 16 h was > 50 µM

---

experiment: Plasma concentration (pharmacokinetics) after single oral dose in humans; format: in vivo, human; conditions: male, human, plasma, po, 10 mg, 10 mg single oral dose; read-out: tmax Mean
QUANTITY_MEASURED: Tmax
Field: value (include unit after the number)

Given item O=C(O)c1nc2ccccc2n([C@H]2C[C@H]3CCC[C@@H](C2)N3C2CC3CCCC(C3)C2)c1=O (stereo partly shown) , the value recorded as its Tmax is 1.5 h

---

assay: Plasma concentration (pharmacokinetics) after single oral dose in humans; type: in vivo, human; conditions: male, human, plasma; 30 mg single oral dose
QUANTITY_MEASURED: Cmax (ng/mL)
Kindly answer with a numeric value in ng/mL, unit omitted.

Consider O=C(O)c1nc2ccccc2n([C@H]2C[C@H]3CCC[C@@H](C2)N3C2CC3CCCC(C3)C2)c1=O (stereo partly shown) . Its measured Cmax is 83
